Molecular target: T1, PUF4 RNA-binding domain (Saccharomyces cerevisiae, UniProt P25339 537-888)
T1 sequence: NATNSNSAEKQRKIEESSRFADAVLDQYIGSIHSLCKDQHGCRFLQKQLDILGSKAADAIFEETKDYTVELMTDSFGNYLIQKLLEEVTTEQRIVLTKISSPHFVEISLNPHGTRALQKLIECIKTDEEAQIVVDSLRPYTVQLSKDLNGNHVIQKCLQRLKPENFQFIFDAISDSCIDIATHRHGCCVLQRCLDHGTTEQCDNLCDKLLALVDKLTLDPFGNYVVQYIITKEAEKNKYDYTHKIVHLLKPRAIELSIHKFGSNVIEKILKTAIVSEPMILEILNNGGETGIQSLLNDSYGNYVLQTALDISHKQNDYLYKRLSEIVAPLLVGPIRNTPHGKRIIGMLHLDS
Experiment: Mg; RNA-MaP; 20 mM Na-HEPES pH 7.4, 30 mM KOAc, 0.75 mM MgCl2, 0.1% Tween-20, 5% glycerol, 0.1 mg/mL BSA, 2 mM DTT; 25 C; 0.0125-409.6 nM protein
Conditions: tags: N-His6-TEV cleaved; C-SNAP kept, Cy3B-labelled; label: tethered on chip by stalled RNA polymerase
Outcome Measure: log10 of Kd (log10 of the value in nM)
Give log10 of Kd, with Kd taken in nM.

>>> reading("Ie_S2_P5E.1_K5.1_C5.1_H5.1_[+3CCCTT]_A5.1_F5.1_T5.1 (ssRNA) RNA: UUUGAUUAAUAUGAUAUCGUUCUUUCUUGUCCCUUAUUAUUAUUCUUUCUCGAUAUCAUAUUAAUCUUU")
1.74

Item UCUCUUGCUGUAUAUAUCUCUCUU (ssRNA) [Id_ii_S1_P3E.2_K3.1_C3.2_[C-2G]_[T-1C]_H3.1_A3.1_F3.1_T3.2_[A10C]] : provide log10 of Kd
1.10

Fill in log10 of Kd for record UCUCUUCUUGUCCAUAUAUAUCUCUU (ssRNA) [Ie_S1_P3E.2_K3.1_C3.2_H3.1_[+3CC]_A3.1_F3.1_T3.2]
2.91

State, in one line, measured log10 of Kd of Ib_S4_P4E.1_K4.1_C4.1_H4.1_A4.1_[A6C]_[T7G]_F4.1_T4.1 (ssRNA) RNA: UUUGACAACUGAUCGUUCUUUCUUGUAUCGUAUUCUUUCUCGAUCAGUUGUCUUU
1.16
